Data origin, for the record: patent US20240383958A1

Target: T1, apelin receptor (AGTRL1) on CHO-K1 cells (UniProt P35414 1-380, limits assumed)
T1 sequence (looked up): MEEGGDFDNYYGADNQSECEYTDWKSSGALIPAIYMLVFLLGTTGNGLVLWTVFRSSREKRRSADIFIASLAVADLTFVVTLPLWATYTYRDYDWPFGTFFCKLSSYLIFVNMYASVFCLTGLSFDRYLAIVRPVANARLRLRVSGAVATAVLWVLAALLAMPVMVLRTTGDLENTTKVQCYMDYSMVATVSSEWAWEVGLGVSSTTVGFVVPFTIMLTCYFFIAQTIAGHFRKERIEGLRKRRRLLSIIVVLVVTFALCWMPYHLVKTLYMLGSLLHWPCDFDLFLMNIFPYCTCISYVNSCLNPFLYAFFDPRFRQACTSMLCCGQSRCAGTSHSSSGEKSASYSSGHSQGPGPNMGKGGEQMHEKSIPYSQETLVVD
Experiment: cell-based or functional assay
# label = bin(measured beta-Arrestin EC50 (nM) Exp. 2), where bins are low band = under 40 nM, middle band = from 40 nM up to 100 nM, high band = 100 nM and over

Binder	Discrete label
ELA-F (Fc fusion) DKTHTSPPSPAPEAAGGPSVFLFPPKPKDTLMISRTPEVTCVVVDVSHEDPEVKFNWYVDGVEVHNAKTKPREEQYNSTYRVVSVLTVLHQDWLNGKEYKCKVSNKALPAPIEKTISKAKGQPREPQVYTLPPSREEMTKNQVNLTCLVKGFYPSDIAVEWESNGQPENNYKTTPPVLDSDGSFFLNSTLTVDKSRWQQGNVFSCSVMHEALHNHYTQKSLSLSPGKGGGGSGGGGSGGGGSKLRKHNCLKRRCMPLHSRVPFP	middle band
ELA-G (Fc fusion) DKTHTSPPSPAPEAAGGPSVFLFPPKPKDTLMISRTPEVTCVVVDVSHEDPEVKFNWYVDGVEVHNAKTKPREEQYNSTYRVVSVLTVLHQDWLNGKEYKCKVSNKALPAPIEKTISKAKGQPREPQVYTLPPSREEMTKNQVNLTCLVKGFYPSDIAVEWESNGQPENNYKTTPPVLDSDGSFFLNSTLTVDKSRWQQGNVFSCSVMHEALHNHYTQKSLSLSPGKGGGGSGGGGSGGGGSKLRKHNCLQRRCMPLHSYVPFP	high band
ELA-I (Fc fusion) DKTHTSPPSPAPEAAGGPSVFLFPPKPKDTLMISRTPEVTCVVVDVSHEDPEVKFNWYVDGVEVHNAKTKPREEQYNSTYRVVSVLTVLHQDWLNGKEYKCKVSNKALPAPIEKTISKAKGQPREPQVYTLPPSREEMTKNQVNLTCLVKGFYPSDIAVEWESNGQPENNYKTTPPVLDSDGSFFLNSTLTVDKSRWQQGNVFSCSVMHEALHNHYTQKSLSLSPGKGGGGSGGGGSGGGGSKLRKHNSLQRRYMPLHSRVPFP	high band

Consider ELA-C (Fc fusion) DKTHTSPPSPAPEAAGGPSVFLFPPKPKDTLMISRTPEVTCVVVDVSHEDPEVKFNWYVDGVEVHNAKTKPREEQYNSTYRVVSVLTVLHQDWLNGKEYKCKVSNKALPAPIEKTISKAKGQPREPQVYTLPPSREEMTKNQVNLTCLVKGFYPSDIAVEWESNGQPENNYKTTPPVLDSDGSFFLNSTLTVDKSRWQQGNVFSCSVMHEALHNHYTQKSLSLSPGKGGGGSGGGGSGGGGSKLRKHNCLQRRCMILHSRVPFP . To which beta-Arrestin EC50 (nM) Exp. 2 class does it belong?
middle band

Band for the recorded beta-Arrestin EC50 (nM) Exp. 2 of ELA-K (Fc fusion) DKTHTSPPSPAPEAAGGPSVFLFPPKPKDTLMISRTPEVTCVVVDVSHEDPEVKFNWYVDGVEVHNAKTKPREEQYNSTYRVVSVLTVLHQDWLNGKEYKCKVSNKALPAPIEKTISKAKGQPREPQVYTLPPSREEMTKNQVNLTCLVKGFYPSDIAVEWESNGQPENNYKTTPPVLDSDGSFFLNSTLTVDKSRWQQGNVFSCSVMHEALHNHYTQKSLSLSPGKGGGGSGGGGSGGGGSKLRKHNCLIRRCMPLHSRVPFP ?
low band

For the record ELA-A (Fc fusion) DKTHTSPPSPAPEAAGGPSVFLFPPKPKDTLMISRTPEVTCVVVDVSHEDPEVKFNWYVDGVEVHNAKTKPREEQYNSTYRVVSVLTVLHQDWLNGKEYKCKVSNKALPAPIEKTISKAKGQPREPQVYTLPPSREEMTKNQVNLTCLVKGFYPSDIAVEWESNGQPENNYKTTPPVLDSDGSFFLNSTLTVDKSRWQQGNVFSCSVMHEALHNHYTQKSLSLSPGKGGGGSGGGGSGGGGSKLRKHNCLQRRCMPLHSRVPFP , report the class its beta-Arrestin EC50 (nM) Exp. 2 corresponds to.
middle band

Please classify: ELA-D (Fc fusion) DKTHTSPPSPAPEAAGGPSVFLFPPKPKDTLMISRTPEVTCVVVDVSHEDPEVKFNWYVDGVEVHNAKTKPREEQYNSTYRVVSVLTVLHQDWLNGKEYKCKVSNKALPAPIEKTISKAKGQPREPQVYTLPPSREEMTKNQVNLTCLVKGFYPSDIAVEWESNGQPENNYKTTPPVLDSDGSFFLNSTLTVDKSRWQQGNVFSCSVMHEALHNHYTQKSLSLSPGKGGGGSGGGGSGGGGSKLRKHNCLQRRCMPLHQRVPFP
high band

Which class does ELA-L (Fc fusion) DKTHTSPPSPAPEAAGGPSVFLFPPKPKDTLMISRTPEVTCVVVDVSHEDPEVKFNWYVDGVEVHNAKTKPREEQYNSTYRVVSVLTVLHQDWLNGKEYKCKVSNKALPAPIEKTISKAKGQPREPQVYTLPPSREEMTKNQVNLTCLVKGFYPSDIAVEWESNGQPENNYKTTPPVLDSDGSFFLNSTLTVDKSRWQQGNVFSCSVMHEALHNHYTQKSLSLSPGKGGGGSGGGGSGGGGSKLRKHNCATRRCMPLHSRVPFP fall in?
low band

Class label required: ELA-B (Fc fusion) DKTHTSPPSPAPEAAGGPSVFLFPPKPKDTLMISRTPEVTCVVVDVSHEDPEVKFNWYVDGVEVHNAKTKPREEQYNSTYRVVSVLTVLHQDWLNGKEYKCKVSNKALPAPIEKTISKAKGQPREPQVYTLPPSREEMTKNQVNLTCLVKGFYPSDIAVEWESNGQPENNYKTTPPVLDSDGSFFLNSTLTVDKSRWQQGNVFSCSVMHEALHNHYTQKSLSLSPGKGGGGSGGGGSGGGGSKLNKHNCLQRRCMPLHSRVPFP
middle band
